- Test system: Histone deacetylase 2 (Homo sapiens, UniProt Q92769)
- Sequence (Q92769 whole entry): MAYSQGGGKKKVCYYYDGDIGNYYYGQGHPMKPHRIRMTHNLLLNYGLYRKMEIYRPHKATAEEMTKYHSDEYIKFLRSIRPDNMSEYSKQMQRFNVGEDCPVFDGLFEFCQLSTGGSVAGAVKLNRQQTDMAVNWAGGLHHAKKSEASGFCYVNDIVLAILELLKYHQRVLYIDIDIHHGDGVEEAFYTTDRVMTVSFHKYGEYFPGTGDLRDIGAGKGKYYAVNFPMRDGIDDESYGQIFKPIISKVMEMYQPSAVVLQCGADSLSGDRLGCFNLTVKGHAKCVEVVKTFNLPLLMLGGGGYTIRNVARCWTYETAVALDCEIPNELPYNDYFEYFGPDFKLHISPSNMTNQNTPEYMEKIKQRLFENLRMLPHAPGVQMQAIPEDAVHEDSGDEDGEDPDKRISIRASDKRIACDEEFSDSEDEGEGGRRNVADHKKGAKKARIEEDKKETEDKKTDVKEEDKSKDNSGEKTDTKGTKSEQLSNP
- Protocol notes: Inhibition of C-terminal His-tagged full length human recombinant HDAC2 expressed in baculovirus expression system using fluorogenic acetylated peptide as substrate preincubated with enzyme for 10 mins prior to substrate addition measured after 60 mins by fluorescence analysis
pIC50: −log10 of the molar value.
Measurement label: pIC50

Recorded pIC50, per entry:
INSERT INTO measurements (smiles_code, result) VALUES
  ('CC(C)[C@@H]1NC(=O)Cn2nnc(n2)-c2csc(n2)CNC(=O)C[C@@H](/C=C/CCS)OC1=O', 6.65),
  ('CCCCCCCC(=O)SCC/C=C/[C@@H]1CC(=O)NCc2nc(cs2)-c2nnn(n2)CC(=O)N[C@@H](C(C)C)C(=O)O1', 4.51),
  ('CCCCCCCC(=O)SCC/C=C/[C@@H]1CC(=O)NCc2nc(cs2)C2=N[C@@](C)(CS2)C(=O)N[C@@H](C(C)C)C(=O)O1', 5.76),
  ('CCCCCCCC(=O)SCC/C=C/[C@@H]1CC(=O)NCc2nc(cs2)-c2cn(nn2)CC(=O)N[C@@H](C(C)C)C(=O)O1', 4.49),
  ('CC(C)[C@@H]1NC(=O)Cn2nnnc2-c2csc(n2)CNC(=O)C[C@@H](/C=C/CCS)OC1=O', 5.49);

A: CCCCCCCC(=O)SCC/C=C/[C@@H]1CC(=O)NCc2nc(cs2)-c2nnnn2CC(=O)N[C@@H](C(C)C)C(=O)O1
B: CC(C)[C@@H]1NC(=O)Cn2cc(nn2)-c2csc(n2)CNC(=O)C[C@@H](/C=C/CCS)OC1=O
Problem: Please choose the item with the lower pIC50 value from this pair: A and B Identify your pick by its label.
Result: A

----------
- Test system: Histone deacetylase 9 (Homo sapiens)
- Sequence (Q9UKV0 whole entry, the tested form may be a part): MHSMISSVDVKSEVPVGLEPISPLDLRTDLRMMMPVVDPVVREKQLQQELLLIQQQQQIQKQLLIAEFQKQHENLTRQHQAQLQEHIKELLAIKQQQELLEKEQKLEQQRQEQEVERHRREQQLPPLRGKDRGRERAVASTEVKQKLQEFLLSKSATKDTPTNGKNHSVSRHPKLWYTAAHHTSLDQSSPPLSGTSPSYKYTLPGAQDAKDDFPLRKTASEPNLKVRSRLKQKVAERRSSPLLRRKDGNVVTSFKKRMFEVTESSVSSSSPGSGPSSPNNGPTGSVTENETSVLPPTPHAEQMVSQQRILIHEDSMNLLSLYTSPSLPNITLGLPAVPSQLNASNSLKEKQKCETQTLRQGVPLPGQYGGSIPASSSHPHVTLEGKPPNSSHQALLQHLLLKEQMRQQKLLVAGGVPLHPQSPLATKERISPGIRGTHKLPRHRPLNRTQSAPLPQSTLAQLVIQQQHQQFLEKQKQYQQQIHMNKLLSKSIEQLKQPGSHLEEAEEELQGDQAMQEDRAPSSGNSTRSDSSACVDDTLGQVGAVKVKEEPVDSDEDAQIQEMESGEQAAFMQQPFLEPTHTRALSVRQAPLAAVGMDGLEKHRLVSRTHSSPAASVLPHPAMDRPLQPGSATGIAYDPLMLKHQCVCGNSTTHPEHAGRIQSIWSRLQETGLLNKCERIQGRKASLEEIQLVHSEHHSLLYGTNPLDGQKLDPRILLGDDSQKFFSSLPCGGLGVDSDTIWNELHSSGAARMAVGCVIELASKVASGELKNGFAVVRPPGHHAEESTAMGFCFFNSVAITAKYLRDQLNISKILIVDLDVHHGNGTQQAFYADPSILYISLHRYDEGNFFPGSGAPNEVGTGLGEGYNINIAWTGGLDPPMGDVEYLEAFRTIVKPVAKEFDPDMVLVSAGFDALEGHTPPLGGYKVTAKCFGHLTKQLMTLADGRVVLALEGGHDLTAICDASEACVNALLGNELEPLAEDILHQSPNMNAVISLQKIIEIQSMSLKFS
- Protocol notes: Inhibition of C-terminal His-tagged human recombinant HDAC9 (amino acids 604- 1066) expressed in baculovirus expression system using fluorogenic acetylated peptide as substrate preincubated with enzyme for 10 mins prior to substrate addition measured after 60 mins by fluorescence analysis
Measurement label: IC50 (µM)

P: CCCCCCCC(=O)SCC/C=C/[C@@H]1CC(=O)NCc2nc(cs2)-c2cn(nn2)CC(=O)N[C@@H](C(C)C)C(=O)O1
Q: CC(C)[C@@H]1NC(=O)Cn2nnc(n2)-c2csc(n2)CNC(=O)C[C@@H](/C=C/CCS)OC1=O
R: CC(C)[C@@H]1NC(=O)Cn2nnnc2-c2csc(n2)CNC(=O)C[C@@H](/C=C/CCS)OC1=O
Problem: Order the above molecules by increasing IC50. Present the labels in the sequence the task asks for.
Result: R, Q, P

----------
- Test system: Histone deacetylase 3 (Homo sapiens, UniProt O15379)
- Sequence (O15379 whole entry): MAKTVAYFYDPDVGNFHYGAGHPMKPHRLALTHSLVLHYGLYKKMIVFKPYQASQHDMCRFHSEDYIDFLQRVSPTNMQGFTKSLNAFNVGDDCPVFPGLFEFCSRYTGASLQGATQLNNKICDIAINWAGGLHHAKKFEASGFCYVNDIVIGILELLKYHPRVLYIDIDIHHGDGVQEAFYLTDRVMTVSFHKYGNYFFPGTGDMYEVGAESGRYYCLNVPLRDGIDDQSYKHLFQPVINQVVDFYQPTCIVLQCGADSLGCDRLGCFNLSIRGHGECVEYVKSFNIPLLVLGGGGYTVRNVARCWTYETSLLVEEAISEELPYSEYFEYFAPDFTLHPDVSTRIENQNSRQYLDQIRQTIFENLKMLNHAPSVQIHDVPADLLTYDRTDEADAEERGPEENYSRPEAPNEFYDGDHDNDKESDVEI
- Protocol notes: Inhibition of C-terminal His-tagged full length human recombinant HDAC3 co-expressed with NcoR2 in baculovirus expression system using fluorogenic acetylated peptide as substrate preincubated with enzyme for 10 mins prior to substrate addition measured after 60 mins by fluorescence analysis
pIC50: −log10 of the molar value.
Measurement label: pIC50

I: CCCCCCCC(=O)SCC/C=C/[C@@H]1CC(=O)NCc2nc(cs2)-c2nnn(n2)CC(=O)N[C@@H](C(C)C)C(=O)O1
II: CCCCCCCC(=O)SCC/C=C/[C@@H]1CC(=O)NCc2nc(cs2)-c2nnnn2CC(=O)N[C@@H](C(C)C)C(=O)O1
III: CC(C)[C@@H]1NC(=O)Cn2nnc(n2)-c2csc(n2)CNC(=O)C[C@@H](/C=C/CCS)OC1=O
IV: CC(C)[C@@H]1NC(=O)Cn2cc(nn2)-c2csc(n2)CNC(=O)C[C@@H](/C=C/CCS)OC1=O
Problem: Rank descending by pIC50. Present the labels in the sequence the task asks for.
Result: III, IV, I, II

A: CCCCCCCC(=O)SCC/C=C/[C@@H]1CC(=O)NCc2nc(cs2)-c2cn(nn2)CC(=O)N[C@@H](C(C)C)C(=O)O1
B: CC(C)[C@@H]1NC(=O)Cn2nnnc2-c2csc(n2)CNC(=O)C[C@@H](/C=C/CCS)OC1=O
Problem: Please choose the item with the lower pIC50 value from this pair: A and B Identify your pick by its label.
Result: A
(A: 4.85, B: 6.19)

----------
- Test system: Histone deacetylase 1 (Homo sapiens, UniProt Q13547)
- Sequence (Q13547 whole entry): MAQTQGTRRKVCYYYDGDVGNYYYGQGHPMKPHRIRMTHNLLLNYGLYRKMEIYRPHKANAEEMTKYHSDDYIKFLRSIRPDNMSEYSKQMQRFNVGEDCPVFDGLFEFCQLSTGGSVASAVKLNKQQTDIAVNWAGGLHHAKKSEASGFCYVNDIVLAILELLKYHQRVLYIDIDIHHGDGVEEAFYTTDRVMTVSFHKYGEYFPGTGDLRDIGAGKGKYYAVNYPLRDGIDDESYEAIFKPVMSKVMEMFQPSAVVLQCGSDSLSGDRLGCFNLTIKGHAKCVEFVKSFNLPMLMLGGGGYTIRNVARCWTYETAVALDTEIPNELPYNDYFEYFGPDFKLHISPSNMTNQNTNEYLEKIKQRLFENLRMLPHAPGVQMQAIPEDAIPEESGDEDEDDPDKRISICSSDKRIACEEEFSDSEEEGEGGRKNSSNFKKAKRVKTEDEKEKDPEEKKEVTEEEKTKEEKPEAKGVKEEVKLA
- Protocol notes: Inhibition of C-terminal His-tagged and C-terminal FLAG-tagged full length human recombinant HDAC1 expressed in baculovirus expression system using fluorogenic acetylated peptide as substrate preincubated with enzyme for 10 mins prior to substrate addition measured after 60 mins by fluorescence analysis
pIC50: −log10 of the molar value.
Measurement label: pIC50

INSERT INTO measurements (smiles_code, measurement_label, result) VALUES
  ('CC(C)[C@@H]1NC(=O)Cn2nnnc2-c2csc(n2)CNC(=O)C[C@@H](/C=C/CCS)OC1=O', 'pIC50', 5.78),
  ('CCCCCCCC(=O)SCC/C=C/[C@@H]1CC(=O)NCc2nc(cs2)-c2nnn(n2)CC(=O)N[C@@H](C(C)C)C(=O)O1', 'pIC50', 5.13),
  ('CCCCCCCC(=O)SCC/C=C/[C@@H]1CC(=O)NCc2nc(cs2)-c2cn(nn2)CC(=O)N[C@@H](C(C)C)C(=O)O1', 'pIC50', 4.75);

1: CC(C)[C@@H]1NC(=O)Cn2nnc(n2)-c2csc(n2)CNC(=O)C[C@@H](/C=C/CCS)OC1=O
2: CC(C)[C@@H]1NC(=O)Cn2cc(nn2)-c2csc(n2)CNC(=O)C[C@@H](/C=C/CCS)OC1=O
Problem: Please choose the item with the lower pIC50 value from this pair: 1 and 2 Identify your pick by its label.
Result: 2

----------
- Test system: Histone deacetylase 9 (Homo sapiens)
- Protocol notes: Inhibition of C-terminal His-tagged human recombinant HDAC9 (amino acids 604- 1066) expressed in baculovirus expression system using fluorogenic acetylated peptide as substrate preincubated with enzyme for 10 mins prior to substrate addition measured after 60 mins by fluorescence analysis
Measurement label: IC50 (µM)

INSERT INTO measurements (molecule, test_system, result) VALUES
  ('CCCCCCCC(=O)SCC/C=C/[C@@H]1CC(=O)NCc2nc(cs2)C2=N[C@@](C)(CS2)C(=O)N[C@@H](C(C)C)C(=O)O1 [LARGAZOLE]', 'Histone deacetylase 9 (Homo sapiens)', 8.33);

A: CCCCCCCC(=O)SCC/C=C/[C@@H]1CC(=O)NCc2nc(cs2)-c2nnnn2CC(=O)N[C@@H](C(C)C)C(=O)O1
B: CC(C)[C@@H]1NC(=O)Cn2cc(nn2)-c2csc(n2)CNC(=O)C[C@@H](/C=C/CCS)OC1=O
Problem: Please choose the item with the lower IC50 value from this pair: A and B Identify your pick by its label.
Result: A

All values here come from ChEMBL document CHEMBL2321647.
